- procedureSummary: Intravenous and buccal pharmacokinetic study in the minipig
- Format: in vivo
- particulars: male, Göttingen, in vivo, 0.01 mg/kg, buccal 0.010 mg/kg, individual animals 1-3, read-out: Plasma concentration Day 3 Hour 2
- Experimental: The test article was compound 10. […] The plasma concentrations of compound 10 were determined after solid phase extraction of the plasma samples followed by high performance liquid chromatography with tandem mass spectrometric detection (LC-MS/MS) using a sample volume of about 100 microL. […]
Where a name gives a salt, the structure may show the parent alone.
testReadout: concentration at 2 h (ng/mL)
Numbers only here, please. The scale is ng/mL.

Q: Please give the measured concentration at 2 h for this compound: CCCN1CCC[C@@H]2Cc3c(ccc(O)c3O)C[C@H]21 [compound 10, hydrobromide]
A: 0.589

----------
- procedureSummary: Intravenous and buccal pharmacokinetic study in the minipig
- Type: in vivo
- particulars: male, Göttingen, in vivo, 0.01 mg/kg, buccal 0.010 mg/kg, mean, read-out: Plasma concentration Day 1 Hour 12, Mean
Counter-ions that a name gives are not always drawn.
testReadout: concentration at 12 h (ng/mL)
Numbers only here, please. The scale is ng/mL.

Q: Please give the measured concentration at 12 h for this compound: CCCN1CCC[C@@H]2Cc3c(ccc(O)c3O)C[C@H]21 [compound 10, hydrobromide]
A: 0.0691

----------
- systemTested: human recombinant D1 receptor (Homo sapiens, UniProt P21728)
- Sequence (P21728 whole entry): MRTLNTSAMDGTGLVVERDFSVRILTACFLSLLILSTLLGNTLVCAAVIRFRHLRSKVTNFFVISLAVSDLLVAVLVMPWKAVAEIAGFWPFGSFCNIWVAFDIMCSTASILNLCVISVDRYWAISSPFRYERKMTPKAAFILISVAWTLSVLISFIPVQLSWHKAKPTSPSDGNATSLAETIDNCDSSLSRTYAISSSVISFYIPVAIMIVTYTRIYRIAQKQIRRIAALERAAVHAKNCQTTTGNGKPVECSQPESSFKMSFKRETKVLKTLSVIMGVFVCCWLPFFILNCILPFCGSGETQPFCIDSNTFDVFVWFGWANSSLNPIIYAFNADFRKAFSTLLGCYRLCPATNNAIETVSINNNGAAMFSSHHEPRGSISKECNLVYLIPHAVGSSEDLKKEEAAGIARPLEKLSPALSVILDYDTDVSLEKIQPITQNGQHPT
- procedureSummary: D1 cAMP assay
Counter-ions that a name gives are not always drawn.
testReadout: pEC50
pEC50 here is simply -log10 of the concentration when that concentration is written in mol/L.

Q: human recombinant D1 receptor (Homo sapiens, UniProt P21728) / pEC50 / CCCN1CCC[C@@H]2Cc3c(ccc(O)c3O)C[C@H]21 [compound 10, hydrobromide] : value?
A: 7.81

----------
- procedureSummary: Intravenous and buccal pharmacokinetic study in the minipig
- Assay type: in vivo
- particulars: male, Göttingen, in vivo, 0.01 mg/kg, buccal 0.010 mg/kg, mean, read-out: Plasma concentration Day 3 Hour 0.75, Mean
- Protocol: The test article was compound 10. […] The plasma concentrations of compound 10 were determined after solid phase extraction of the plasma samples followed by high performance liquid chromatography with tandem mass spectrometric detection (LC-MS/MS) using a sample volume of about 100 microL. […]
Counter-ions that a name gives are not always drawn.
testReadout: concentration at 0.75 h (ng/mL)
Numbers only here, please. The scale is ng/mL.

Q: Please give the measured concentration at 0.75 h for this molecule: CCCN1CCC[C@@H]2Cc3c(ccc(O)c3O)C[C@H]21 [compound 10, hydrobromide]
A: 1.04

----------
- procedureSummary: Intravenous and buccal pharmacokinetic study in the minipig
- Type: in vivo
- particulars: male, Göttingen, in vivo, iv, 0.0025 mg/kg, IV 0.0025 mg/kg, mean, read-out: Plasma concentration Day 1 Hour 0.5, Mean
Counter-ions that a name gives are not always drawn.
testReadout: concentration at 0.5 h (ng/mL)
Numbers only here, please. The scale is ng/mL.

Q: Please give the measured concentration at 0.5 h for this compound: CCCN1CCC[C@@H]2Cc3c(ccc(O)c3O)C[C@H]21 [compound 10, hydrobromide]
A: 0.673
